molecular target: Fibroblast growth factor receptor 2 (Homo sapiens); details: Compound concentration 20.0 uM
Description: Thermal Shift Assay. Domain: start/stop: T457-E768
Label 1 (yes) when ΔTm < -0.2 °C; otherwise 0 (no).

Regarding Cc1ccc2[nH]c(-n3nc(C)c(Cc4ccccc4)c3O)nc2c1 , kindly confirm whether its ΔTm is beneath -0.2 °C.
0 (no)

Regarding N#Cc1cc(F)cc(Oc2ccc3c(c2C(F)F)[C@@H](O)C(F)(F)S3(=O)=O)c1 , kindly confirm whether its ΔTm is beneath -0.2 °C.
1 (yes)

Regarding CCc1c(C)nc(-c2ccc(Cl)s2)nc1Nc1ccc(CC(=O)O)cc1 , kindly confirm whether its ΔTm is beneath -0.2 °C.
0 (no)

Regarding CCOC(=O)c1ccc(-c2ccc(OC(=O)N(C)Cc3cccc(-c4ccncc4)c3)cc2)cc1 , kindly confirm whether its ΔTm is beneath -0.2 °C.
1 (yes)

Regarding CN(C)CC(c1ccc(O)cc1)C1(O)CCCCC1 (centres undefined) , kindly confirm whether its ΔTm is beneath -0.2 °C.
0 (no)

Regarding N#Cc1ccc(Nc2cnccc2SCc2ccccc2C(=O)O)c2ccccc12 , kindly confirm whether its ΔTm is beneath -0.2 °C.
0 (no)

Regarding CC(=O)N[C@@H](CC(=O)O)C(=O)N[C@@H](CCC(=O)O)C(=O)N[C@H](C(=O)N[C@@H](CC(=O)O)C(=O)CCl)C(C)C , kindly confirm whether its ΔTm is beneath -0.2 °C.
0 (no)

Regarding COCCOCCn1nc2c(c1C)-c1c(Cl)ccc3c1c(C)c(C(=O)O)n3CCCOc1cc(cc3c(F)c(Cl)ccc13)CCc1cc(nn1C)CSC2 , kindly confirm whether its ΔTm is beneath -0.2 °C.
1 (yes)

Regarding Cc1nc(F)ccc1-c1cc(Cn2ccn(C)c2=N)cc(C(=O)NCc2ccc(Cl)c(Cl)c2)c1 , kindly confirm whether its ΔTm is beneath -0.2 °C.
0 (no)

----------
Exercise: for every item that follows, state its recorded ΔTm.
target: UniProt:P55201; conditions: Compound concentration 20.0 uM
Sequence (P55201 whole entry): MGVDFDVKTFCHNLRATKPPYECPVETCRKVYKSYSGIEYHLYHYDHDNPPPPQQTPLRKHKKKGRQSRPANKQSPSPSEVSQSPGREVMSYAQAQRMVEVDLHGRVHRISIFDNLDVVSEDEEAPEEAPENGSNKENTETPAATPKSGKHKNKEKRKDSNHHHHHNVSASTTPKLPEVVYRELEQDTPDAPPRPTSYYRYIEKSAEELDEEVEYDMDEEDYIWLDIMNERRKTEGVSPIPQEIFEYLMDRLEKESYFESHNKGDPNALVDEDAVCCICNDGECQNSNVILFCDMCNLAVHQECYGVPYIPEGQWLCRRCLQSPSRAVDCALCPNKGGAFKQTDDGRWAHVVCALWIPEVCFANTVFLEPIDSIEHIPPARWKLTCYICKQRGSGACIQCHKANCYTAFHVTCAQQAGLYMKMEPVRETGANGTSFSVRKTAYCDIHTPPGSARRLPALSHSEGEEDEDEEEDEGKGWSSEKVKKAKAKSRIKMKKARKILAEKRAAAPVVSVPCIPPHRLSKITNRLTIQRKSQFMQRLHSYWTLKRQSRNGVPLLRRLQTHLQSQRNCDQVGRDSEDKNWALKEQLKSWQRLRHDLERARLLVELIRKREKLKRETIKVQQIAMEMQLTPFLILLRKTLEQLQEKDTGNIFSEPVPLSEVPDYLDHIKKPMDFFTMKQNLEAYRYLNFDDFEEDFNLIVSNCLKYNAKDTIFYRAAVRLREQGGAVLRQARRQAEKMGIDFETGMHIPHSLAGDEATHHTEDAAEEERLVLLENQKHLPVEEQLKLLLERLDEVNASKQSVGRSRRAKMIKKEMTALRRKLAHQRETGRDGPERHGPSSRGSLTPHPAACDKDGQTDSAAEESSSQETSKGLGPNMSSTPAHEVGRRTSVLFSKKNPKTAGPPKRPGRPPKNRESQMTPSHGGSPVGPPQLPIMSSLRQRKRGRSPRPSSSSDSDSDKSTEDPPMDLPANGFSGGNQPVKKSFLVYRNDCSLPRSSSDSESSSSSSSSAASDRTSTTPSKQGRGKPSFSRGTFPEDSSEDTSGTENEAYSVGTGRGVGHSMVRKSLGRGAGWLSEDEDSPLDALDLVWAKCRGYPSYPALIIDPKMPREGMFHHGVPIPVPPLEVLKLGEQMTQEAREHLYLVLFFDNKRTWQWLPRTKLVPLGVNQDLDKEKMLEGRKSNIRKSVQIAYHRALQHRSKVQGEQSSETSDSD
Note: unit °C is implicit; provide only the numeric part.

Entry COc1cc(-c2cn(C)c(=O)c3cnccc23)cc(OC)c1CN(C)CC(=O)NCCOCCOCCNc1cccc2c1C(=O)N(C1CCC(=O)NC1=O)C2=O (centres undefined) has what ΔTm?
-0.56

Entry CC(C)[C@@H]1NC(=O)[C@H](Cc2ccc(O)cc2)NC(=O)[C@@H](CC(=O)O)NC(=O)S[C@@H](C(=O)O)NC(=O)[C@H]([C@H](C)O)NC(=O)[C@H](Cc2ccc(O)cc2)NC(=O)[C@H](Cc2c[nH]c3ccccc23)NC(=O)[C@H](CCCNC(=N)N)NC(=O)[C@H](Cc2c[nH]c3ccccc23)NC(=O)[C@H](C)NC(=O)[C@H](CO)NC(=O)[C@H](CCCNC(=N)N)NC(=O)[C@H]([C@H](C)O)NC(=O)[C@H](CC(N)=O)NC(=O)[C@H](Cc2ccc(O)cc2)NC1=O has what ΔTm?
1.38

Entry O=C(NCC(=O)N1CCCCC1)Nc1ccc2nnsc2c1 has what ΔTm?
-1.05

Entry CCOc1ccc(S(=O)(=O)Nc2ccc(Cl)cc2C#Cc2cnc(C(=O)O)cc2OC)c2ncccc12 has what ΔTm?
0

Entry COc1cc(-c2cn(C)c(=O)c3cnccc23)cc(OC)c1CN(C)C has what ΔTm?
6.51

Entry CNC(=O)Cn1cc(-c2ccc3c(c2)[C@H](F)C[C@]32NC(=O)N(CC(=O)N(Cc3ccc(F)cc3)[C@@H](C)C(F)(F)F)C2=O)cn1 has what ΔTm?
-0.07

Entry CNCC[C@@H](Oc1ccccc1C)c1ccccc1 has what ΔTm?
-1.53

Entry Cn1c(NCCN(CCO)CCCc2ccc([N+](=O)[O-])cc2)cc(=O)n(C)c1=O has what ΔTm?
1.28

Entry Nc1cc(F)ccc1NC(=O)c1ccc(CNC(=O)/C=C/c2cccnc2)cc1 has what ΔTm?
-0.89

Entry COc1ncc(C)c(-c2ccc3c(c2)[nH]c(=O)c2cnn([C@H]4CCOC4)c23)c1C has what ΔTm?
0.86

Entry Cc1cc(OCCCNCC(C)(C)C(N)=O)ccc1Cc1c(O[C@@H]2O[C@H](CO)[C@@H](O)[C@H](O)[C@H]2O)n[nH]c1C(C)C has what ΔTm?
1.07

Entry O=C(O)/C(S)=C/c1ccc(I)cc1 has what ΔTm?
-1.4

Entry COc1cc2c(NC3CCN(C)CC3)nc(N3CCCN(C)CC3)nc2cc1OCCCN(C)C has what ΔTm?
-1.21

Entry Cc1ccc2c(c1)nc(/C=C/c1cccc3cccnc13)n2-c1cccc(OCCCN2CCN(C)CC2)c1 has what ΔTm?
0.16

Entry CN(C)CC(c1ccc(O)cc1)C1(O)CCCCC1 (centres undefined) has what ΔTm?
-1.07

Entry CCC[C@H]1CNCc2c1[nH]c(=O)c(C#N)c2N1CCC2(CC1)CC2 has what ΔTm?
-0.83

Entry O=c1[nH]c(N2CCC3(CC2)CN(CCO)c2cc(F)cc(F)c23)nc2c1CCCC2 has what ΔTm?
1.75

Entry O=C(NCCCCCCCCNC(=O)C(Cl)Cl)C(Cl)Cl has what ΔTm?
0.99

Entry O=C(NCC1(c2nc(-c3ccccc3)cs2)CCOCC1)c1cccc(-c2noc(C(F)(F)F)n2)c1 has what ΔTm?
-4.49

Entry N#Cc1c(N)[nH]c2cc(/C=C/c3cccc(F)c3)ccc12 has what ΔTm?
6.38

Entry NC(=O)C1CCCc2c1[nH]c1ccc(Cl)cc21 (centres undefined) has what ΔTm?
2.61

Entry CC(C)(F)C[C@H](N[C@@H](c1ccc(-c2ccc(S(C)(=O)=O)cc2)cc1)C(F)(F)F)C(=O)NC1(C#N)CC1 has what ΔTm?
-1.04

Entry COc1cc2c(NCC3CCN(C)CC3)cc(-c3ccc(C)o3)nc2cc1OCCCN1CCCC1 has what ΔTm?
-0.88

Entry CCc1c(-c2ccccc2)c(-c2ccccc2)nn1-c1ccccc1-c1cccc(OCC(=O)O)c1 has what ΔTm?
-3.01

Entry O=S(=O)(CSc1nnc(Br)n1Cc1ccc(Br)c2ccccc12)Nc1cccnc1 has what ΔTm?
1.59

Entry CC(C)[C@@H]1C(=O)N(S(C)(=O)=O)[C@@H]2CCN(C(=O)/C=C/CN3CCCCC3)[C@H]21 has what ΔTm?
-1.67

Entry Cc1[nH]nc(C(F)(F)F)c1Cc1sc2c(c1C(=O)N1C[C@](C)(O)CO1)c(=O)n(C)c(=O)n2C(C)C has what ΔTm?
0.94

Entry CCN(CC)S(=O)(=O)c1cc(Nc2nccc(-c3ccnc(-c4ccc(NC(=O)NC)cc4)c3)n2)ccc1Cl has what ΔTm?
-7.45

Entry Nc1ncnc2nc(-c3ccc(N4CCOCC4)nc3)cc(-c3cccc(Br)c3)c12 has what ΔTm?
-0.37

Entry O=C(O)c1cccc(-c2ccc(-c3cn(C(=O)N4CCCCC4Cc4ccccc4)nn3)cc2)c1 (centres undefined) has what ΔTm?
-2.81

Entry COc1cc(Nc2ncc(F)c(Nc3ccc4c(n3)N(COP(=O)(O)O)C(=O)C(C)(C)O4)n2)cc(OC)c1OC has what ΔTm?
-0.81

Entry O=C(Nc1ccccc1C(=O)O)c1cc(S(=O)(=O)c2ccccc2)ccc1Cl has what ΔTm?
0.95

Entry CCOCC1(COCC)CCC(c2n[nH]cc2CN(C)CCNC)CC1 has what ΔTm?
-0.75

Entry CS(=O)(=O)Nc1ccc2oc3c(OC(F)F)ccc(C(=O)Nc4c(Cl)cncc4Cl)c3c2c1 has what ΔTm?
0.46
